- SYSTEM UNDER TEST: Mitogen-activated protein kinase 10 (Mus musculus)
- ASSAY PROTOCOL: JNK3 AlphaScreen Assay (AID 530);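 note: kinase came from lysate of stimulated human HepG2 cells; signal reports phosphorylation of biotinylated GST-cJun 1-79 at Ser73 with 10 µM ATP; % is set by controls: 0 for no effect and ±100 for the full control effect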
- CONDITION: JNK3 lysate, c-Jun phosphorylation; series mostly up to 11.4 µM
Results filed as inconclusive are left out. Active and inactive are the calls of the source. Calls come from the whole dose curve; as a rule, active = well fitted curve in either direction with a large enough effect (not every such curve was filed as active); inconclusive = small, poorly fitted or top-dose-only effect, or another doubt; inactive = flat fitted curve, though single readings scatter.

{"columns": ["STRUCTURE NOTATION", "outcome"],
 "data": [
  ["CN(CC(=O)O)CC(=O)O", "inactive"],
  ["COc1ncc2nc(-c3cc(F)cc(F)c3)c(=O)n(CCc3ccccc3)c2n1", "inactive"],
  ["O=C(O)CN(CCN(CC(=O)O)CC(=O)O)CC(=O)O.[Mn]", "inactive"],
  ["O=C(C[n+]1ccc2ccccc2c1)c1ccc2ccc3ccccc3c2c1", "inactive"],
  ["C[C@]12C=CC(=O)C=C1CC[C@@H]1[C@H]3C[C@@H](O)[C@](O)(C(=O)CO)[C@]3(C)C[C@H](O)[C@]12F", "inactive"]
]}

###

- System: CP260
- ASSAY PROTOCOL: qHTS profiling for inhibitors of Plasmodium falciparum proliferation (AID 504749); note: nearly all actives have a fitted effect of over 60% in size
- CONDITION: P. falciparum in erythrocytes, SYBR Green DNA, 72 h; series mostly up to 28.7 µM
Records with an inconclusive call do not appear. Calls of active or inactive are those of the source. Calls follow the shape of the dose curve; as a rule, active = well fitted inhibition curve with a large enough effect; inconclusive = small, poorly fitted or top-dose-only effect; inactive = flat fitted curve, though single readings scatter.
Outcomes: yes (1) = active, no (0) = inactive

{"columns": ["MOLECULE", "GROUP LABEL"],
 "data": [
  ["N[C@@H](Cc1ccccc1)C(=O)O", "no (0)"],
  ["CN(C)[C@H]1C(=O)C(C(=O)NCN2CCCC2)=C(O)[C@]2(O)C(=O)C3=C(O)c4c(O)cccc4[C@](C)(O)[C@H]3C[C@H]12", "no (0)"],
  ["CO/N=C(\\C(=O)N[C@@H]1C(=O)N2C(C(=O)[O-])=C(C[N+]3(C)CCCC3)CS[C@@H]12)c1csc(N)n1", "no (0)"],
  ["C[C@@H]1C[C@H]2[C@H]3C[C@@H](F)C4=CC(=O)C=C[C@]4(C)[C@@]3(Cl)[C@@H](O)C[C@@]2(C)[C@@H]1C(=O)COC(=O)C(C)(C)C", "yes (1)"],
  ["CC(C)(C)c1ccc(CN2CCN([C@H](c3ccccc3)c3ccc(Cl)cc3)CC2)cc1", "yes (1)"],
  ["CC(=O)N1CCN(c2ccc(OC[C@@H]3CO[C@@](Cn4ccnc4)(c4ccc(Cl)cc4Cl)O3)cc2)CC1", "no (0)"],
  ["CN1[C@@H]2CC(OC(=O)[C@@H](CO)c3ccccc3)C[C@@H]1[C@H]1O[C@H]12 (stereo partly drawn)", "no (0)"],
  ["COc1cc2nc(N(C)CCCNC(=O)[C@@H]3CCCO3)nc(N)c2cc1OC", "no (0)"],
  ["N[C@H](COP(=O)(O)O)C(=O)O", "no (0)"],
  ["C[C@]12CC[C@H]3c4ccc(O)cc4CC[C@@H]3[C@H]1CC[C@@H]2OP(=O)(O)O", "no (0)"],
  ["COc1cccc2c1C(=O)c1c(O)c3c(c(O)c1C2=O)C[C@](O)(C(=O)CO)C[C@@H]3O[C@H]1C[C@H](N)[C@@H](O)[C@H](C)O1", "no (0)"],
  ["C[C@H]1C[C@@H]2[C@H]3CCC4=CC(=O)C=C[C@@]4(C)[C@@]3(Cl)[C@@H](O)C[C@]2(C)[C@]1(OC(=O)c1ccco1)C(=O)CCl", "yes (1)"],
  ["C[N+]1(C)[C@@H]2CC(OC(=O)[C@@H](CO)c3ccccc3)C[C@@H]1[C@H]1O[C@H]12 (stereo partly drawn)", "no (0)"],
  ["NS(=O)(=O)c1cc2c(cc1Cl)N[C@H](Cc1ccccc1)NS2(=O)=O", "no (0)"],
  ["Cc1onc(-c2c(F)cccc2Cl)c1C(=O)N[C@@H]1C(=O)N2[C@H]1SC(C)(C)[C@H]2C(=O)O", "no (0)"],
  ["CC(C)(C)NC[C@@H](O)c1ccc(O)c(CO)n1", "no (0)"],
  ["CC1(C)[C@@H]2CC[C@]1(C)[C@@H](OC(=O)CSC#N)C2", "no (0)"],
  ["Cc1cn([C@H]2C[C@H](N=[N+]=[N-])[C@H](CO)O2)c(=O)[nH]c1=O", "no (0)"]
]}

###

- SYSTEM UNDER TEST: Lysosomal acid glucosylceramidase (Homo sapiens) (UniProt P04062)
- Sequence (P04062 whole entry, looked up): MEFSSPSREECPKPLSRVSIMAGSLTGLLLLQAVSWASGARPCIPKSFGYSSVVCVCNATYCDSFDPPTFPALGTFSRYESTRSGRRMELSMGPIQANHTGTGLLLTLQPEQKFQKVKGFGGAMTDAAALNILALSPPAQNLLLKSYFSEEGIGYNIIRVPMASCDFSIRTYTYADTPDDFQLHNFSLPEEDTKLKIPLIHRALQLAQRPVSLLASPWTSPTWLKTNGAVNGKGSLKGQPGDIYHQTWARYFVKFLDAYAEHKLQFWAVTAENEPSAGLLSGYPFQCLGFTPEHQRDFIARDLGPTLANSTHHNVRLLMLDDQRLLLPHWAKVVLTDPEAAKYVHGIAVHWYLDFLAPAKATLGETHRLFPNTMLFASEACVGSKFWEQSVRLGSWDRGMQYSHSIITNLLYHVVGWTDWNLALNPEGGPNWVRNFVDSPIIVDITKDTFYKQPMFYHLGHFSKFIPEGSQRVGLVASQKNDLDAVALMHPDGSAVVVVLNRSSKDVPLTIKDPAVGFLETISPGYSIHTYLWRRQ
- ASSAY PROTOCOL: Glucocerebrosidase-p2 (AID 348); note: potency is the fitted concentration of half-maximal effect
- CONDITION: purified GBA, blue fluorogenic substrate, 40 min
Activity calls are given as the source filed them. Rule as the data show it: active = potency below about 10 µM; inactive = the rest.
Parameter Potency: see the listing below.

{"columns": ["STRUCTURE NOTATION", "SYSTEM UNDER TEST", "Potency"],
 "data": [
  ["Oc1cc(O)c2c(c1)O[C@H](c1ccc(O)c(O)c1)[C@@H](O)[C@@H]2c1c(O)cc(O)c2c1O[C@@H](c1ccc(O)c(O)c1)[C@H](O)C2", "Lysosomal acid glucosylceramidase (Homo sapiens) (UniProt P04062)", "> 11.4 µM (inactive)"],
  ["c1nc(NCCc2cnc[nH]2)c2[nH]cnc2n1", "Lysosomal acid glucosylceramidase (Homo sapiens) (UniProt P04062)", "> 11.4 µM (inactive)"],
  ["CC1(C)CCC(=O)N[C@H]1CC(=O)C[C@H]1NC(=O)CCC1(C)C", "Lysosomal acid glucosylceramidase (Homo sapiens) (UniProt P04062)", "> 11.4 µM (inactive)"],
  ["Nc1ncnc2c1ncn2C[C@@H](O)C(=O)O", "Lysosomal acid glucosylceramidase (Homo sapiens) (UniProt P04062)", "> 11.4 µM (inactive)"],
  ["O=C(O)[C@@H]1[C@@H]2C[C@H]([C@@H](Br)[C@H]2N2C(=O)CCC2=O)[C@@H]1C(=O)O", "Lysosomal acid glucosylceramidase (Homo sapiens) (UniProt P04062)", "> 11.4 µM (inactive)"]
]}

###

- SYSTEM UNDER TEST: Retinoic acid receptor RXR-alpha (Homo sapiens)
- ASSAY PROTOCOL: qHTS assay for small molecule antagonists of retinoid X receptor alpha signaling (AID 588546);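 note: cells stimulated with 9-cis-retinoic acid as agonist; % is set by controls: 0 for no effect and ±100 for the full control effect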
- CONDITION: HEK293T RXRa-UAS-bla, beta-lactamase ratio, antagonist mode
Records with an inconclusive call do not appear.

{"columns": ["COMPOUND", "max response (%)"],
 "data": [
  ["CCCCC(CC)COP(=O)(OCC(CC)CCCC)OCC(CC)CCCC (centres undefined)", -4.08],
  ["O=[N+]([O-])c1ccc(F)cc1F", 10.7],
  ["COc1ccc(C(=O)Nc2ccccc2)cc1[N+](=O)[O-]", -8.72],
  ["O=C1c2ccccc2C(=O)C1(O)O", 29.7],
  ["Oc1cc2c(cc1O)[C@H]1c3ccc(O)c(O)c3OC[C@@]1(O)C2", -15.2],
  ["O=[N+]([O-])c1cccc(I)c1", -4.26],
  ["C=CC1CO1 (centres undefined)", -9.54],
  ["C=CC(C)(O)CCCC(C)CCCC(C)CCCC(C)C (centres undefined)", 7.39],
  ["CCCCCCCCOc1ccc(C(=O)O)cc1", -6.4],
  ["C1CCCNCC1", 5.08],
  ["Cc1ccc2ccc3cccc4ccc1c2c34", -1.11],
  ["CC(=O)Nc1cccc(C)c1", 1.56],
  ["c1ccc(CSCc2ccccc2)cc1", 1.24],
  ["Nc1ccc(N=Nc2ccccc2)c(N)c1", -15]
]}

###

- ASSAY PROTOCOL: Cell Viability - LYMP2-004 (AID 966);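 note: cells exposed to compound for 24 h; nearly all actives have a fitted effect of over 65% in size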
- CONDITION: LYMP2-004 lymphoblastoid cell viability, qHTS; series mostly up to 92.2 µM
Inconclusive results are not listed. The source made the active and inactive calls. Calls come from the whole dose curve; as a rule, active = well fitted cell-killing curve with a large enough effect; inconclusive = small, poorly fitted or top-dose-only effect, or effect the other way; inactive = no such curve, though single readings can be large or run the other way.
Outcomes: active, inactive

{"columns": ["MOLECULE", "GROUP LABEL"],
 "data": [
  ["O=C(Cl)c1ccc([N+](=O)[O-])cc1", "inactive"],
  ["CCNC(=S)NCC", "inactive"],
  ["Cc1cc2nc(N)sc2cc1C", "inactive"],
  ["Oc1ccc2c(c1)OCO2", "inactive"],
  ["CC(=O)c1ccc(Cl)c(Cl)c1Cl", "inactive"],
  ["O=[N+]([O-])c1cccc(I)c1", "inactive"],
  ["c1cc2c3c(c1)ccc1cccc(c13)C2", "inactive"],
  ["C=Cc1cccc(C)c1", "inactive"],
  ["CC(=O)OC(C(=O)c1ccccc1)c1ccccc1 (stereo unspecified)", "inactive"],
  ["O=[N+]([O-])c1ccccc1Nc1ccccc1", "inactive"],
  ["Cc1cccnc1", "inactive"],
  ["O=C1OC(=O)c2ccccc21", "inactive"],
  ["Nc1ccc(N)c(Cl)c1", "inactive"],
  ["Cc1cc(=O)oc2cc(O)cc(O)c12", "inactive"],
  ["c1c[nH]cn1", "inactive"],
  ["CC(C)COC(=O)COc1cc(Cl)c(Cl)cc1Cl", "inactive"],
  ["CCCCOC(=O)COc1ccc(Cl)cc1Cl", "inactive"],
  ["CCCC(=O)OC(=O)CCC", "inactive"],
  ["CCOc1ccc2nc(N)sc2c1", "inactive"],
  ["C/C=C/C=C/C=O", "active"],
  ["CC(=O)OCc1ccc2c(c1)OCO2", "inactive"],
  ["Oc1c(Cl)cc(Cl)c(Cl)c1Cl", "inactive"],
  ["Cc1ccc(S(N)(=O)=O)cc1", "inactive"],
  ["c1ccc(Nc2cccc3ccccc23)cc1", "inactive"],
  ["c1ccc(CSCc2ccccc2)cc1", "inactive"],
  ["Cc1ccc2ccc3cccc4ccc1c2c34", "inactive"]
]}
